All values here come from patent US20240158391A1.

- target or test system: CDK2/CyclinA2 (Homo sapiens, UniProt P24941)
- test summary: ADP Glo kinase assay, CDK2/CyclinA2
- experimental conditions: Km ATP, read-out: Enzymatic inhibition, Ki, CDK2 A
reported metric: Ki (nM)
Just the number please, in nM, no unit attached.

Query: What does the record list as Ki for Cc1nc2ccc(F)cn2c1-c1ccnc(Nc2ccc(N3CCN(C)CC3)nc2)n1 [Compound 2] ?
Response: 63

Query: What does the record list as Ki for Fc1cnc(Nc2cccnc2)nc1-c1cnc2ccccn12 [Compound 4] ?
Response: 1

Query: What does the record list as Ki for CN(C)C1CCN(Cc2ccc(Nc3nccc(-c4cnc5ccc(Br)cn45)n3)cn2)CC1 [Compound 81] ?
Response: 41

* * *

Reported remaining activity at 1 µM values follow for various molecules
- target or test system: CDK4/CyclinD1 (Homo sapiens)
- Sequence (P11802 whole entry, species assumed): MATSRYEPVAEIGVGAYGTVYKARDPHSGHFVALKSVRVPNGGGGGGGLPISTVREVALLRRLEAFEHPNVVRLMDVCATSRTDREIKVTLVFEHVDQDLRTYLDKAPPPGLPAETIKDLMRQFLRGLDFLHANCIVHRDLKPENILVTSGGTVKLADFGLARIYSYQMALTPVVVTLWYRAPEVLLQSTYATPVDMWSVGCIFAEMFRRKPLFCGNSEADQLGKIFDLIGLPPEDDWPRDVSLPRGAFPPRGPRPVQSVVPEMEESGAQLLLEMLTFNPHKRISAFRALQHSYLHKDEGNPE
- Sequence (P24385 whole entry partner, species assumed): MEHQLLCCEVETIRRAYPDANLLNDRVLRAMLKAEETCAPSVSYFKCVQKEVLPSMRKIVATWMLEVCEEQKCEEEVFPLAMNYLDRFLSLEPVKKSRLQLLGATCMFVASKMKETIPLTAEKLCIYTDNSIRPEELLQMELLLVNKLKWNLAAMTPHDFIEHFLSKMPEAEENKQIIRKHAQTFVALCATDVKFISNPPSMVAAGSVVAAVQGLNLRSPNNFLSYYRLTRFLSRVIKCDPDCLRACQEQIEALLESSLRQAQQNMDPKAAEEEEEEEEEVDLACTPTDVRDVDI
- test summary: ADP Glo kinase assay, CDK4/CyclinD1
- Type: biochemical
- experimental conditions: compound at 1 μM, read-out: Residual enzymatic activity (%) at 1 μM, CDK4 D1
Quick note: unit goes after the number.

>  <molecule>
CS(=O)(=O)N1CCN(c2ccc(Nc3nccc(-c4cnc5ccc(-c6ccncc6)cn45)n3)cn2)CC1

>  <target or test system>
CDK4/CyclinD1 (Homo sapiens)

>  <reported metric>
remaining activity at 1 µM

>  <reported>
47%

$$$$
>  <molecule>
Fc1cnc(Nc2ccc(Cl)nc2)nc1-c1cnc2ccc(-c3ccccc3)cn12

>  <target or test system>
CDK4/CyclinD1 (Homo sapiens)

>  <reported metric>
remaining activity at 1 µM

>  <reported>
92%

$$$$
>  <molecule>
CN1CCN(c2ccc(Nc3nccc(-c4cnc5ccc(-c6cccnc6)cn45)n3)nc2)CC1 [Comparator compound C, reference compound]

>  <target or test system>
CDK4/CyclinD1 (Homo sapiens)

>  <reported metric>
remaining activity at 1 µM

>  <reported>
76%

$$$$

Query: What does the record list as remaining activity at 1 µM for CCCNc1ccc(Nc2nccc(-c3cnc4ccc(-c5cnn(C(F)F)c5)cn34)n2)cn1 ?
Response: 97%

Query: What does the record list as remaining activity at 1 µM for Cc1cnc(Nc2ccc(N3CCOCC3)nc2)nc1-c1cnc2ccccn12 ?
Response: 50%

Query: What does the record list as remaining activity at 1 µM for CCCNc1ccc(Nc2nccc(-c3cnc4ccc(-c5ccccc5)cn34)n2)cn1 ?
Response: 89%

Query: What does the record list as remaining activity at 1 µM for CN1CCN(c2ccc(Nc3nccc(-c4cnc5ccc(-c6cn[nH]c6)cn45)n3)cn2)CC1 ?
Response: 21%

* * *

- Test system: MV-4-11
- test summary: Proliferation assay (resazurin, leukemia cell lines), MV-4-11
- Assay type: cell-based
- experimental conditions: Homo sapiens, MV4-11, read-out: 72 h Growth inhibition GI50, MV-4-11 cells
- Description: The following compounds were used as comparators.
reported metric: GI50

>  <molecule>
CS(=O)(=O)N1CCN(c2ccc(Nc3nccc(-c4cnc5ccc(-c6cc7ccccc7o6)cn45)n3)cn2)CC1 [Compound 52]

>  <reported>
23 nM

$$$$
>  <molecule>
Cc1cnc(Nc2ccc(N3CCNCC3)nc2)nc1-c1cnc2ccccn12 [Compound 13]

>  <reported>
7 nM

$$$$
>  <molecule>
CC(=O)N1CCN(c2ccc(Nc3nccc(-c4cnc5ccc(-c6cccc7[nH]ccc67)cn45)n3)cn2)CC1 [Compound 49]

>  <reported>
17 nM

$$$$

Here's the next entry for you.
Query: Give MV-4-11 GI50 for O=C(c1ccc(Nc2ncc(F)c(-c3cnc4ccc(-c5ccccc5)cn34)n2)cn1)N1CCCCC1 [Compound 32]
Response: 620 nM

* * *

- target or test system: CDK2/CyclinA2 (Homo sapiens)
- test summary: ADP Glo kinase assay, CDK2/CyclinA2
- Type: biochemical
- experimental conditions: compound at 1 μM, read-out: Residual enzymatic activity (%) at 1 μM, CDK2 A
Label key: 1 (yes) means remaining activity at 1 µM under 80%; 0 (no) means remaining activity at 1 µM of 80% or more.

Take a look at these entries with their results.
>  <molecule>
Fc1cnc(Nc2ccc(Cl)nc2)nc1-c1cnc2ccc(-c3ccccc3)cn12 [Compound 34]

>  <category>
0 (no)

$$$$
>  <molecule>
COc1cc(F)cc(-c2ccc3ncc(-c4ccnc(Nc5ccc(N6CCN(C)CC6)nc5)n4)n3c2)c1 [Compound 64]

>  <category>
0 (no)

$$$$
>  <molecule>
CN1CCN(c2ccc(Nc3nccc(-c4cnc5ccc(-c6cnn(C)c6)cn45)n3)nc2)CC1 [Comparator compound B, reference compound]

>  <category>
0 (no)

$$$$
>  <molecule>
CCS(=O)(=O)N1CCN(c2ccc(Nc3nccc(-c4cnc5ccc(-c6ccc(F)nc6)cn45)n3)cn2)CC1 [Compound 61]

>  <category>
1 (yes)

$$$$
>  <molecule>
c1ccc(-c2ccc3ncc(-c4ccnc(Nc5ccc(N6CCCC6)nc5)n4)n3c2)cc1 [Compound 27]

>  <category>
1 (yes)

$$$$

Query: Just wondering, is remaining activity at 1 µM of CC(=O)N1CCN(c2ccc(Nc3nccc(-c4cnc5ccccn45)n3)cn2)CC1 [Compound 41] below 80%?
Response: 1 (yes)

Query: Just wondering, is remaining activity at 1 µM of CC(C)N1CCN(c2ccc(Nc3nccc(-c4cnc5ccc(-c6cncnc6)cn45)n3)cn2)CC1 [Compound 53] below 80%?
Response: 1 (yes)

Query: Just wondering, is remaining activity at 1 µM of CC(=O)N1CCN(c2ccc(Nc3nccc(-c4cnc5ccc(Br)cn45)n3)cn2)CC1 [Compound 44] below 80%?
Response: 1 (yes)

Query: Just wondering, is remaining activity at 1 µM of CS(=O)(=O)N1CCN(c2ccc(Nc3nccc(-c4cnc5ccc(-c6cccs6)cn45)n3)cn2)CC1 [Compound 21] below 80%?
Response: 1 (yes)

Query: Just wondering, is remaining activity at 1 µM of CCOc1ccc(Nc2ncc(F)c(-c3cnc4ccc(-c5ccccc5)cn34)n2)cn1 [Compound 31] below 80%?
Response: 1 (yes)

Query: Just wondering, is remaining activity at 1 µM of CS(=O)(=O)N1CCN(c2ccc(Nc3nccc(-c4cnc5ccc(-c6ccc(F)nc6)cn45)n3)cn2)CC1 [Compound 56] below 80%?
Response: 1 (yes)

Query: Just wondering, is remaining activity at 1 µM of CS(=O)(=O)N1CCN(c2ccc(Nc3nccc(-c4cnc5ccc(-c6cncnc6)cn45)n3)cn2)CC1 [Compound 20] below 80%?
Response: 1 (yes)

Query: Just wondering, is remaining activity at 1 µM of CC(=O)N1CCN(c2ccc(Nc3nccc(-c4cnc5ccc(-c6ccncc6)cn45)n3)cn2)CC1 [Compound 46] below 80%?
Response: 1 (yes)

Query: Just wondering, is remaining activity at 1 µM of O=C(NC1CC1)c1ccc(Nc2ncc(F)c(-c3cnc4ccc(-c5ccccc5)cn34)n2)cn1 [Compound 33] below 80%?
Response: 0 (no)

* * *

- Test system: MV-4-11
- test summary: Proliferation assay (resazurin, leukemia cell lines), MV-4-11
- Assay type: cell-based
- experimental conditions: Homo sapiens, MV4-11, read-out: 72 h Growth inhibition GI50, MV-4-11 cells
- Text: The following compounds were used as comparators.
reported metric: GI50 (nM)
Just the number please, in nM, no unit attached.

>  <smiles>
CN1CCN(c2ccc(Nc3nccc(-c4cnc5ccc(-c6cncnc6)cn45)n3)cn2)CC1

>  <GI50 [nM]>
19

$$$$

Query: What does the record list as GI50 for CN1CCN(c2ccc(Nc3nccc(-c4cnc5ccc(F)cn45)n3)cn2)CC1 ?
Response: 13

Query: What does the record list as GI50 for CN1CCN(c2ccc(Nc3nccc(-c4cnc5ccc(C(F)(F)F)cn45)n3)cn2)CC1 ?
Response: 18

Query: What does the record list as GI50 for CC(=O)N1CCN(c2ccc(Nc3nccc(-c4cnc5ccc(-c6ccncc6)cn45)n3)cn2)CC1 ?
Response: 25

Query: What does the record list as GI50 for O=C1NCCC12CCN(c1ccc(Nc3nccc(-c4cnc5ccc(-c6cnn(C(F)F)c6)cn45)n3)cn1)CC2 ?
Response: 14

* * *

- target or test system: CDK1/CyclinB (Homo sapiens, UniProt P06493)
- Sequence (P06493 whole entry, species assumed): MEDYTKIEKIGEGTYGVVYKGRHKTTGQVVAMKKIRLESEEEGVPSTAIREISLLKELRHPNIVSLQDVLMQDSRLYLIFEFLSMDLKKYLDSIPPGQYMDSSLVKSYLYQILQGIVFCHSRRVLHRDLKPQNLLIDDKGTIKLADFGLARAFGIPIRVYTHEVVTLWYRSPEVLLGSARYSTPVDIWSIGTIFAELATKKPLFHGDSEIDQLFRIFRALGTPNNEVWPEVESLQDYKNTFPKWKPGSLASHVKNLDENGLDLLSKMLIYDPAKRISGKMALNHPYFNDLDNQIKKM
- Sequence (P14635 whole entry partner, species assumed): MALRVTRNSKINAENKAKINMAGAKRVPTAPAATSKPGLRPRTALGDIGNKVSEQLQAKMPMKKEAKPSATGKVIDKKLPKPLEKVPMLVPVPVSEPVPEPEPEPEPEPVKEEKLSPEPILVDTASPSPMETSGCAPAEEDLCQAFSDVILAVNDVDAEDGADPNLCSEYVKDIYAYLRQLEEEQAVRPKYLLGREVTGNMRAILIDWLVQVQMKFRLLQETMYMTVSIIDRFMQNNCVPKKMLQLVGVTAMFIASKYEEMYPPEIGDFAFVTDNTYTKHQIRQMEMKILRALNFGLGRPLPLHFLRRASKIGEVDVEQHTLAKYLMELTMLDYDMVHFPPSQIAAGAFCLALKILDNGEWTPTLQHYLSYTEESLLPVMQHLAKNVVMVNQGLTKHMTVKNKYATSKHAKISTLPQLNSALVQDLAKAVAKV
- test summary: ADP Glo kinase assay, CDK1/CyclinB
- Type: biochemical
- experimental conditions: compound at 1 μM, read-out: Residual enzymatic activity (%) at 1 μM, CDK1 B
reported metric: remaining activity at 1 µM (%)
Just the number please, in %, no unit attached.

Example results:
>  <compound>
CCS(=O)(=O)N1CCN(c2ccc(Nc3nccc(-c4cnc5ccc(-c6ccc(F)nc6)cn45)n3)cn2)CC1 [Compound 61]

>  <target or test system>
CDK1/CyclinB (Homo sapiens, UniProt P06493)

>  <reported metric>
remaining activity at 1 µM

>  <reported>
38

$$$$
>  <compound>
CCS(=O)(=O)N1CCN(c2ccc(Nc3nccc(-c4cnc5ccc(-c6ccccc6)cn45)n3)cn2)CC1 [Compound 60]

>  <target or test system>
CDK1/CyclinB (Homo sapiens, UniProt P06493)

>  <reported metric>
remaining activity at 1 µM

>  <reported>
61

$$$$
>  <compound>
CN(C)C1CCN(Cc2ccc(Nc3nccc(-c4cnc5ccc(Br)cn45)n3)cn2)CC1 [Compound 81]

>  <target or test system>
CDK1/CyclinB (Homo sapiens, UniProt P06493)

>  <reported metric>
remaining activity at 1 µM

>  <reported>
84

$$$$
>  <compound>
CCN1CCN(Cc2ccc(Nc3nccc(-c4cnc5ccc(Br)cn45)n3)cn2)CC1 [Compound 79]

>  <target or test system>
CDK1/CyclinB (Homo sapiens, UniProt P06493)

>  <reported metric>
remaining activity at 1 µM

>  <reported>
70

$$$$

Query: Give CDK1/CyclinB (Homo sapiens, UniProt P06493) remaining activity at 1 µM for Fc1cnc(Nc2ccc(N3CCN(CCN4CCOCC4)CC3)nc2)nc1-c1cnc2ccc(-c3ccccc3)cn12 [Compound 30]
Response: 52

Query: Give CDK1/CyclinB (Homo sapiens, UniProt P06493) remaining activity at 1 µM for CC(=O)N1CCN(c2ccc(Nc3nccc(-c4cnc5ccc(-c6ccncc6)cn45)n3)cn2)CC1 [Compound 46]
Response: 21

Query: Give CDK1/CyclinB (Homo sapiens, UniProt P06493) remaining activity at 1 µM for CS(=O)(=O)N1CCN(c2ccc(Nc3nccc(-c4cnc5ccc(-c6ccco6)cn45)n3)cn2)CC1 [Compound 51]
Response: 77
